Kindly find below IC50 information for Protein arginine N-methyltransferase 6 (Homo sapiens, UniProt Q96LA8) taken from the literature.

Look up and state reported IC50 for "CN(CCN)Cc1c[nH]nc1-c1ccc2[nH]ncc2c1"
≤ 100 nM

Indicate its recorded IC50; the compound in question is "CN(CCN)Cc1c[nH]nc1-c1cccs1"
101 to 1000 nM

Provide measured IC50 value, entry: "CN(CCN)Cc1c[nH]nc1-c1ccc2cnn(C)c2c1"
≤ 100 nM

Return reported IC50. Input compound: "CNCCN(C)Cc1n[nH]cc1-c1ccc(Oc2ccccc2)c(C#N)c1"
< 100 nM

Annotate the compound "CNCCN(C)Cc1cncn1[C@H]1CC[C@@]2(CC1)CC(C)(C)CO2" with its measured IC50.
181 nM

Specify measured IC50 for CNCCN(C)Cc1c[nH]nc1C1=CCC2(CC1)CC(C)(C)CO2 (stereo not drawn) .
59.7 nM

Please report IC50 for the following compound: "Cc1ccncc1-c1n[nH]cc1CN(C)CCN"
101 to 1000 nM

Check the records and state IC50 for "CNCCN(C)Cc1sc(C)nc1[C@H]1CC[C@@]2(CC1)CC(C)(C)CO2"
98.4 nM

Report IC50 for "CN(CCN)Cc1c[nH]nc1-c1ccc(NCc2ccccc2)nc1"
≤ 100 nM

Please indicate IC50 recorded for "Cc1nn(C)c(C)c1-c1n[nH]cc1CN(C)CCN"
≥ 10000 nM

Retrieve IC50 measured for "Cc1cncc(-c2n[nH]cc2CN(C)CCN)c1" and print it.
3010 to 10000 nM

Answer with the recorded IC50 of "CN(CCN)Cc1c[nH]nc1-c1cncc(S(C)(=O)=O)c1" only.
1010 to 3000 nM

Read off the recorded IC50 for CNCCN(C)Cc1c[nH]nc1C1CCC(C)(C)[C@H](COCCOC)C1 (stereo partly drawn)
124 nM

Consider the compound "CN(CCN)Cc1c[nH]nc1-c1cncc(C#N)c1" . State its measured IC50.
101 to 1000 nM

Identify measured IC50 corresponding to "CCn1cc(-c2n[nH]cc2CN(C)CCN)cn1"
≤ 100 nM

Report IC50, nothing else, for this compound: "CN(CCN)Cc1c[nH]nc1-c1ccc(C(F)(F)F)nc1"
≤ 100 nM

Tell us which IC50 value is on record for CNCCN(C)Cc1c[nH]nc1[C@@H]1CC[C@@H](OCCCOC)C2(CCCC2)C1 (racemic)
107 nM

Provide only the value of recorded IC50 for "Cc1n[nH]c(C)c1-c1n[nH]cc1CN(C)CCN"
≥ 10000 nM

Return IC50 for the following compound: "CNCCN(C)Cc1c([C@H]2CC[C@@]3(CC2)CC(C)(C)CO3)nnn1C"
> 10000 nM

Specify IC50 for "CNCCN(C)Cc1nnc(C)n1[C@H]1CC[C@@]2(CC1)CC(C)(C)CO2" and stop.
> 10000 nM

Using the record for "CN(CCN)Cc1c[nH]nc1-c1ccncc1" , state its measured IC50.
≤ 100 nM

For the compound CCC1(CC)CC2(CCC(c3n[nH]cc3CN(C)CCNC)CC2)N(C)C1=O (stereo not drawn) , give its measured IC50 value.
62.7 nM

Give recorded IC50. "Cc1cc(-c2n[nH]cc2CN(C)CCN)cnc1Cl"
≤ 100 nM

Give the measured IC50 for "COc1ncc(-c2n[nH]cc2CN(C)CCN)cn1"
101 to 1000 nM

Give IC50 for the following compound: "CCC1(CC)C[C@]2(CC[C@@H](c3n[nH]cc3CN(C)CCNC)CC2)NC1=O"
73.6 nM

Please give measured IC50 of the following entry: "CNCCN(C)Cc1c[nH]nc1[C@H]1CC[C@@]2(CCCCO2)CC1"
27.7 nM

For the compound "CN(CCN)Cc1c[nH]nc1-c1cn[nH]c1" , give its reported IC50.
101 to 1000 nM

Consider the compound "CNCCN(C)Cc1c(C)noc1[C@H]1CC[C@]2(CC1)CC(C)(C)CO2" and give its recorded IC50.
2080 nM

Identify the reported IC50 for the following entry. "CN(CCN)Cc1c[nH]nc1-c1ccc(N2CCOCC2)nc1"
101 to 1000 nM

Complete the entry with IC50 for "CNCCN(C)Cc1c[nH]nc1[C@H]1CC[C@@]2(CCN(CCC(C)C)C2=O)CC1"
18.6 nM

Report measured IC50; entry is "CN(CCN)Cc1nn(C)cc1[C@H]1CC[C@@]2(CC1)CC(C)(C)CO2"
345 nM

Report IC50, nothing else, for this compound: "CCOCC1(COCC)CCC(c2n[nH]cc2CN(C)CCN(C)C)CC1"
79.3 nM

Give me measured IC50, please, for this compound: "CN(CCN)Cc1c[nH]nc1-c1cncnc1"
101 to 1000 nM

Provide only the value of recorded IC50 for "CC(C)Cn1cc(-c2n[nH]cc2CN(C)CCN)cn1"
≤ 100 nM

Quick one: give measured IC50 for CNCCN(C)Cc1c[nH]nc1C1CCC2(CC1)CC(C)(C)OC2=O (stereo not drawn)
17.4 nM

Look up IC50 of "CNCCN(C)Cc1c[nH]nc1[C@H]1CC[C@@H](COCC(F)(F)F)CC1" and report it.
78.5 nM

* * *

Collected pIC50 for Protein arginine N-methyltransferase 6 (Homo sapiens) across several studies; molecules listed below.
pIC50: −log10 of the molar value.

Consider the molecule "CNCCN(C)Cc1cnnn1[C@H]1CC[C@@]2(CC1)CC(C)(C)CO2" . State its measured pIC50.
< 5.00

Specify pIC50 for "CN(CCN)Cc1c[nH]nc1-c1cnn(CCO)c1" and stop.
≥ 7.00

Supply pIC50 value. Item: "COc1ccncc1-c1n[nH]cc1CN(C)CCN"
6.00 to 7.00

Quote pIC50 reported for "CNCCN(C)Cc1nn(C)nc1[C@H]1CC[C@@]2(CC1)CC(C)(C)CO2" please.
6.68

Identify the reported pIC50 for the following entry. "CNCCN(C)Cc1c(C)[nH]nc1[C@H]1CC[C@]2(CC1)CC(C)(C)CO2"
6.79

Provide one value: measured pIC50 of CNCCN(C)Cc1c[nH]nc1C1CCC(C)(C)[C@H](COCCCOC)C1 (stereo partly drawn)
7.22

Please list pIC50 recorded for the molecule "CN(CCN)Cc1c[nH]nc1-c1cccnc1"
≥ 7.00

For "CN(CCN)Cc1c[nH]nc1-c1cncc(F)c1" , write its pIC50.
≥ 7.00

Dear colleague, please send me the reported pIC50 for "CNCCN(C)Cc1nnc(C)n1[C@H]1CC[C@]2(CC1)CC(C)(C)CO2" when you can.
< 5.00
